In what follows, each item is paired with its IC50 for Estrogen receptor beta (Homo sapiens).
Field: numeric (nM). Do not append units.

{"compound": "Oc1ccc(C2=Cc3cc(O)ccc3C23Cc2ccc(OCCN4CCCCC4)cc2C3)cc1 (centres undefined)", "system.tested": "Estrogen receptor beta (Homo sapiens)", "IC50, nM": 1.8}
{"compound": "O=C1c2ccc(OCCN3CCCCC3)cc2C(=O)C12C(c1ccc(O)cc1)=Cc1cc(O)ccc12 (centres undefined)", "system.tested": "Estrogen receptor beta (Homo sapiens)", "IC50, nM": 223}
{"compound": "O=C1c2ccccc2C(=O)C12C(c1cccc(O)c1)=Cc1cc(O)ccc12", "system.tested": "Estrogen receptor beta (Homo sapiens)", "IC50, nM": 329}

Turning now to a further record.
Request: Lab note: need IC50 with Estrogen receptor beta (Homo sapiens) for entry O=C1c2ccccc2C(=O)C12C(c1ccc(O)cc1)=Cc1cc(O)ccc12 , please look it up.
Sequence (Q92731 whole entry): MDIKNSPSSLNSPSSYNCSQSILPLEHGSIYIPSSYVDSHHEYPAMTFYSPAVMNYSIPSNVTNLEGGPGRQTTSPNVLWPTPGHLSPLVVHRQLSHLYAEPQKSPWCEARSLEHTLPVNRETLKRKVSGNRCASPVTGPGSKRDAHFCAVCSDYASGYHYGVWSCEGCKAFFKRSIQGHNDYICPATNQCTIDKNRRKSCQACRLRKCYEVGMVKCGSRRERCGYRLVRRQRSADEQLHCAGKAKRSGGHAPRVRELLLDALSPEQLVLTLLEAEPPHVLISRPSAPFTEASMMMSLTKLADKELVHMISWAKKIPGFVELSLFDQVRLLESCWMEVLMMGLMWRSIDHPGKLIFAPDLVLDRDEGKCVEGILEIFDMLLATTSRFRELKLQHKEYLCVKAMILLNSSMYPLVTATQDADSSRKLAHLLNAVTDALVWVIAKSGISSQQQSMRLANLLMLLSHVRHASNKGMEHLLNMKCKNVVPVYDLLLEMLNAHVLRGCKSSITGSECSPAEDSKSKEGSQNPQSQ
Result: 103
